TEST SYSTEM: T1, NPNA4 peptide (Plasmodium falciparum (isolate 3D7)., not fully specified)
T1 construct: source: synthetic peptide (InnoPep Inc)
T1 chain: NPNANPNANPNANPNA
ASSAY EXPLANATION: BLI
MEASUREMENT CONDITIONS: both partners purified
Ends that are not written are not given here.
Listing: log10 kon of selected binders
REPORTED METRIC: log10 kon (log10 of the value in M⁻¹ s⁻¹)

BINDER | OBSERVED VALUE
356 Fab (Fab, V domains shown, also called mAb 356; source: ExpiCHO cells, purified (mAb Select PrismA or Capture Select, SEC)) VH: QVQLVESGGGVVQPGRSLRLSCAASGFTFRNFGMHWVRQTPGKGLEWVAVIWHDGSNKFYADSVEGRFTISRDNSKNMIYLQMNSLRVEDTAIYYCARDSLFYDHDNSGYYGYWGQGTLVTVSS VL: QIVMTQSPATVSVSPGERATLSCRASRSVTSKLAWYQQKPGQAPRLLIYGASTRATGIPARFSGSGSGTEFTLTISSLQSEDFAVYFCQQYNNGFTFGPGTKVDFK | 4.90
311R Fab (Fab, V domains shown, also called germline-reverted 311; source: ExpiCHO cells, purified (mAb Select PrismA or Capture Select, SEC)) VH: QVQLVESGGGVVPPGRSLRLSCATSGFTFSSYGMHWVRQAPGKGLEWVAIIWYDGSNKFYAASVKGRFTISRDNSKNTLYLQMNSLRVEDTAVYYCARAAYYDTSGYGDYWGQGTLVTVSS VL: QSVLTQPPSVSGAPGQTVTISCTGGSSNIGAGYDVHWYQQLPGTAPKLLIYGNINRPSGVPDRFSGSKSGTSASLAITGLQAEDEADYYCQSYDSSLSGSWVFGGGTKLTVL | 4.85
239R Fab (Fab, V domains shown, also called germline-reverted 239; source: ExpiCHO cells, purified (mAb Select PrismA or Capture Select, SEC)) VH: QVQLVESGGGVVQPGRSLRLSCAASRLTFSSYGMHWVRQTPGKGLEWVAVIWHDGSNKFYADSVKGRFTISRDNSKNTLYLQMNSLRDEDTAIYYCAKDWGGASDRVFDYWGRGTLVIVSS VL: DIQMTQSPSTLSASVGDRVTITCRASQSVSTSLAWYQQKPGKAPNLLIYQASTLYTGVPSRFSGSGSGTEFTLTIGSLQPDDFATYYCQHYNSYSRITFGQGTRLEIK | 5.61
311 Fab (Fab, V domains shown, also called mAb 311; source: ExpiCHO cells, purified (mAb Select PrismA or Capture Select, SEC)) VH: QVQLVESGGGVVPPGRSLRLSCATSGFTFSNYGMHWVRQAPGKGLEWVAIIWYDGSRNFYAASVEGRFTISRDNSKNTLYLQMNSLRVEDTAVYYCARAAYYDTSGYGDYWGQGTLVTVSS VL: QSVLTQPPSVSGAPGQTVTISCTGGSSNIGAGYDVHWYQQLPGTAPKLLIYGNINRPSGVPDRFSGSKSGTSASLAITGLQAEDEADYYCQSYDRRLSGSWVFGGGTKLTVL | 4.43
337 Fab (Fab, V domains shown, also called mAb 337; source: ExpiCHO cells, purified (mAb Select PrismA or Capture Select, SEC)) VH: QVQLVESGGGVVQPGRSLRLSCAASGFSFSTYGMHWVRQAPGKGLEWVALIWHDGSKKFYSESVRGRFTISRDNSMDTLYLQMSSLRAEDTAVYYCARDGADYFDSTGGAFDIWGQGTMVIVSS VL: EIVMTQSPATLSVSPGERATLSCRASQSVSSNLAWYQQKPGQAPRLLIYGASTRATGIPARFSGSGSGTEFTLTISSLQSEDFATYYCQQYKTWWTFGQGTKVEIK | 5.11
